Measured values drawn from patent US10730882B2 for this set.

Measured pIC50 (UniProtKB P23443)
Sequence (P23443 whole entry): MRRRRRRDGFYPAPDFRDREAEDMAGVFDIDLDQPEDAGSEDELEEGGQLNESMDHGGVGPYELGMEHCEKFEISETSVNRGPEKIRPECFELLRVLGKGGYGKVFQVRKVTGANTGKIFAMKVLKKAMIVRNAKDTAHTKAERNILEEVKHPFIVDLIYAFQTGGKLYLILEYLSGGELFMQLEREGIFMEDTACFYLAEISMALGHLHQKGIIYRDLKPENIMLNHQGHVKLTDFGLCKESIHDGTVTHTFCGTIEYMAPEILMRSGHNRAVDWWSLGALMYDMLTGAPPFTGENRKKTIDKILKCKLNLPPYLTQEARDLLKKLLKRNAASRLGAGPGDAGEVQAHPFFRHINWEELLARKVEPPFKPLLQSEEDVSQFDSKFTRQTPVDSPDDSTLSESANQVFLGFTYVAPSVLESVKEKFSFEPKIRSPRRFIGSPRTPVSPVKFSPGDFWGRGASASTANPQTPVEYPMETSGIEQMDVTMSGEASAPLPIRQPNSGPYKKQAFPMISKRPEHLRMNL
In plain terms, pIC50 is the concentration in mol/L turned into minus its base-10 logarithm.

CN(Cc1ccccc1)c1ncc2cc(-c3ncnc4[nH]ncc34)ccc2n1: 7.48

pIC50 of C[C@@H](Nc1ncc2cc(-c3ncnc4[nH]ncc34)ccc2n1)c1ccccc1F on UniProtKB P23443?
7.82

pIC50 of C[C@@H](Nc1ncc2cc(-c3ccnc4[nH]ncc34)ccc2n1)c1ccccc1 on UniProtKB P23443?
7.37

pIC50 of C[C@@H](Nc1ncc2cc(-c3ncnc4[nH]ncc34)ccc2n1)c1ccccc1O on UniProtKB P23443?
7.70

pIC50 of C[C@@H](Nc1ncc2cc(-c3ncnc4[nH]ncc34)ccc2n1)c1ccccc1 on UniProtKB P23443?
7.89
